System Under Test: TlGK (ADP-dependent glucokinase from Thermococcus litoralis) (Thermococcus litoralis, UniProt Q7M537)
Construct: recombinant, purified from LB culture as in Merino et al. (heat shock, ammonium sulfate, two chromatographic steps); two-domain enzyme
Sequence (Q7M537 whole entry): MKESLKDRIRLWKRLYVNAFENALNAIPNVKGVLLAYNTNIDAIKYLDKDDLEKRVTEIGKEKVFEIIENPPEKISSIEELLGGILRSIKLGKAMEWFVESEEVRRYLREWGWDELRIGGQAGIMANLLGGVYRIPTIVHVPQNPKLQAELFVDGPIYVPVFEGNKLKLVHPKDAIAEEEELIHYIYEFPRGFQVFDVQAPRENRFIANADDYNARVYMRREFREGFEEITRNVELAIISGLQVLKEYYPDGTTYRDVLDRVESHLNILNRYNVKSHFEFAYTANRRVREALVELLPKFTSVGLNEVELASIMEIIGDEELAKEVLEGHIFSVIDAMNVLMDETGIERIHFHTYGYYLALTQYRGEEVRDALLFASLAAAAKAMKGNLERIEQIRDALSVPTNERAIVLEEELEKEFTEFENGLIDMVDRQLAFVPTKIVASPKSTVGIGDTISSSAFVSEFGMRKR
Protocol Text: product inhibition, discontinuous pyruvate kinase / lactate dehydrogenase assay
Assay Setup: mixed type vs Mg·ADP and vs D-glucose; read-out: inhibition constants
Attribute Measured: Ki

Can you look up the measured Ki of O=P(O)(O)OC[C@H]1OC(O)[C@H](O)[C@@H](O)[C@@H]1O (stereo partly shown) for me?
782 µM
